Target: T1, human IL-18BP (human, UniProt O95998 31-194)
T1 construct: UniProt printed as 095998; also called hIL-18BP
T1 sequence: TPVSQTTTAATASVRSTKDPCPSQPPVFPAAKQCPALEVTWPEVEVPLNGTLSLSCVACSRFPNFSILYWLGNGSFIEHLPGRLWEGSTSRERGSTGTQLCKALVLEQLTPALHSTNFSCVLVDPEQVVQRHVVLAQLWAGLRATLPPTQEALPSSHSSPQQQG
Assay: BLI, apparent KD
Experimental Endpoint: Kd (nM)

Binder | Experimental Endpoint | Measured
SA302a HC-H35G (antibody, V domains shown) VH: QVQLQESGPGLVKPSQTLSLTCTVSGYSITSDYNAGWIRQPPGKGLEWIGYIHYSGSTNYNPSLKSRVTISRDTSKNQFSLKLSSVTAADTAVYYCARNYGSIYVNYFDYWGQGTLVTVSS VL: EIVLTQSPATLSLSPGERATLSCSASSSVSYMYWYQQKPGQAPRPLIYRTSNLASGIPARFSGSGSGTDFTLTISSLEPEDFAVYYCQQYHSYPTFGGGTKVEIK | Kd | 2.05

Sourced from patent US20250368745A1
